Where do the numbers come from? From paper PMC12820563.

experimental.system: MBP-FoxP1dN (Mus musculus, UniProt P58462 326-579)
Sequence: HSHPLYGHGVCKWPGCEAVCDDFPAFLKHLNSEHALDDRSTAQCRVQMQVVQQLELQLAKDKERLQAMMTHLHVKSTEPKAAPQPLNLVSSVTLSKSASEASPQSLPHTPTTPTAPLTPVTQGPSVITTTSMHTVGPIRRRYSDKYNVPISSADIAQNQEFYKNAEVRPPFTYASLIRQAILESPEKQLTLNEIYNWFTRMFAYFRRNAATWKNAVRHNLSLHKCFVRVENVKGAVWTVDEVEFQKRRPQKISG
assay.details: PD-seq (MBP pull-down with sequencing); 20 mM Tris-HCl pH 7.5, 100 mM NaCl, 1.5 mM MgCl2, 0.4 uM protein, 0.1 uM dsDNA library, 30 min, room temperature, amylose pull-down; high values mean tight binding
measurement.conditions: protein: recombinant; tags: His6-MBP; chain copies: 2; dsDNA, one strand shown
The full ranking holds about 16,000 sequences; the median of “rpm ratio (pull-down/input)” is about 0.94, and the highest 2% start at about 1.7. What follows is part of a selection rich in the highest values, with near analogues and random picks from the rest.
measured.metric: binding signal

[[record]]
sequence_chain = "GATGATTGTTCTCCCAGCTGATGAATTGTTGTTGTCGAGTAAACAAATTTTCCTAATCTTTCTGTTCAAGCGCCATCTAC"
value = "3.2 RPM ratio (pull-down/input)"

[[record]]
sequence_chain = "GATGATTGTTCTCCCAGCTGATGAATTACTGATGTCGAGTAAACAAATTTTCCTAATCTTTCTGTTCAAGCGCCATCTAC"
value = "1.37 RPM ratio (pull-down/input)"

[[record]]
sequence_chain = "GATGATTGTTCTCCCAGCTGATGAATTTTTCTTGTCGAGTAAACAAATTTTCCTAATCTTTCTGTTCAAGCGCCATCTAC"
value = "1.1 RPM ratio (pull-down/input)"

[[record]]
sequence_chain = "GATGATTGTTCTCCCAGCTGATGAATTTCTTTTGTCGAGTAAACAAATTTTCCTAATCTTTCTGTTCAAGCGCCATCTAC"
value = "0.952 RPM ratio (pull-down/input)"

